Before we begin, note that these log10 of IC50 values for Fibroblast growth factor receptor 1 (Homo sapiens) originate from several publications.
Please keep in mind that the values are log10 of IC50 expressed in nM.

Examples with answers:
>>> df
                            compound_string  recorded_number
0  CC(C)NC(=Nc1nc2nc(NCCCN3CCN(C)CC3)ncc2cc1-c1c(Cl)cccc1Cl)NC(C)C             3.40
1  C=CC(=O)N1CCC(c2cc3c(Oc4ccc(NC(=O)NC5CC5)c(Cl)c4)ccnc3cc2OCC)CC1             0.65

I have 6 compounds here; please give me log10 of IC50 for each one.
1. Cc1n[nH]c2nccc(-c3ccc(NC(=S)Nc4cccc(C(F)(F)F)c4)cc3)c12
2. CCNC(=S)Nc1nc2nc(NCCCN(CC)CC)ncc2cc1-c1c(Cl)cccc1Cl
3. CN1CCN(CCCNc2ncc3cc(-c4c(Cl)cccc4Cl)c(NC(=O)Nc4ccc(Cl)c(Cl)c4)nc3n2)CC1
4. CCC#CC(=O)N1CCC(n2nc3c(=O)[nH]nc(N)c3c2-c2oc3ccc(C)cc3c2C)CC1
5. c1ccc(COc2cccc3[nH]nc(-c4nc5cc(N6CCC(N7CCCCC7)CC6)ccc5[nH]4)c23)cc1
6. CCN(CC)CCCNc1ncc2cc(-c3c(Br)cccc3Br)c(NC(=O)NC(C)(C)C)nc2n1

1: 4.63; 2: 2.41; 3: 2.78; 4: 0.89; 5: 1.97; 6: 2.28
